Here's a roundup of pKi values tested on Alpha-1A adrenergic receptor (Rattus norvegicus, UniProt P43140), taken from various published works.
pKi: −log10 of the molar value.
Label scheme for pKi: lower than 6 is f, 6 and above is t.

CCC(=O)N1c2ccccc2C(N(C(C)=O)c2ccccc2)CC1C (configuration not stated)
f
Cc1nc2ccccn2c(=O)c1CCN1CCC(C(=O)c2ccc(F)cc2)CC1
t
Cc1nc2n(c(=O)c1CCN1CCC(C(=O)c3ccc(F)cc3)CC1)CCS2
t
O=C(NC1CCN(CCc2c[nH]c3ccccc23)CC1)c1ccccc1
t
NC(=NCc1ccccc1)NC(=O)c1nc(Cl)c(N)nc1N
f

Turning now to a further record.
## Task Record CN1Cc2c(N)cccc2[C@H](c2ccccc2)C1 ; criterion: pKi no lower than 6. Met?
## Result f

----------
Here's a roundup of pKi values tested on Alpha-1A adrenergic receptor (Rattus norvegicus, UniProt P43140), taken from various published works.
# target_or_test_system: Alpha-1A adrenergic receptor (Rattus norvegicus, UniProt P43140)
# Sequence (P43140 whole entry): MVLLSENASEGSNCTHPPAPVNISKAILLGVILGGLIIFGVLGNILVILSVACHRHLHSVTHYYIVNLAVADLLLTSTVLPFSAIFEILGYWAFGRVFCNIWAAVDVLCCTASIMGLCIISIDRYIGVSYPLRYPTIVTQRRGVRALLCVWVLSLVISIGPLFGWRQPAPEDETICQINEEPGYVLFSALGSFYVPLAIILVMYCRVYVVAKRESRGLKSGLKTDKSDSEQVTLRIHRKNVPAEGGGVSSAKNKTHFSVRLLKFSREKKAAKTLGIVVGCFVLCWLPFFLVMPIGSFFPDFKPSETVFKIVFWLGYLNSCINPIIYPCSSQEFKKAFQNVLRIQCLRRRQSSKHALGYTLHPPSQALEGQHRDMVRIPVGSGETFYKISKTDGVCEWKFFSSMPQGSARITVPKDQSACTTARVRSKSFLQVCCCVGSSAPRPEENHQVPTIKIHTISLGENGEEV
pKi: −log10 of the molar value.

Some entries whose results are on file:
CC1CC(N(C(=O)C2CC2)c2ccccc2)c2ccccc2N1C(=O)c1ccccc1 (stereo not drawn)
< 6.00
CN(C)CCCC1(c2ccc(F)cc2)OCc2cc(C#N)ccc21 (stereo not drawn)
< 5.00

## Task Lookup: pKi / Alpha-1A adrenergic receptor (Rattus norvegicus, UniProt P43140) / N=C(N)NC(=O)c1nc(Cl)c(N2CCCCCC2)nc1N
## Result < 5.00
